The measured values listed here are drawn from ChEMBL document CHEMBL5113452.

- MEASUREMENT PROTOCOL: Elimination rate constant in Sprague-Dawley rat plasma at 4.53 mg/kg, iv and measured upto 24 hrs in presence of S-NBP by LC-MS/MS analysis
- Assay type: ADME, organism-based
MEASURED PARAMETER: k el at 24 h (s⁻¹)
Give just the numeric value; s⁻¹ need not be written.

Noted for CC1=NN(c2ccc(F)cc2)C(=O)C1 : its k el at 24 h reads 3.75e-05

----------
- MEASUREMENT PROTOCOL: Half life in Sprague-Dawley rat plasma at 4.53 mg/kg, iv and measured upto 24 hrs by LC-MS/MS analysis
- Assay type: ADME, organism-based
MEASURED PARAMETER: half-life

CC1=NN(c2ccc(F)cc2)C(=O)C1 yielded half-life of 68.4 min

----------
- MEASUREMENT PROTOCOL: Half life in Sprague-Dawley rat plasma at 4.53 mg/kg, iv and measured upto 24 hrs in presence of S-NBP by LC-MS/MS analysis
- Format: ADME, organism-based
MEASURED PARAMETER: half-life (h)
Record the value in h, omitting the unit from your answer.

Lab note: CC1=NN(c2ccc(F)cc2)C(=O)C1 gave half-life of 5.16

----------
- MEASUREMENT PROTOCOL: MRT in Sprague-Dawley rat plasma at 4.48 mg/kg, iv and measured upto 24 hrs by LC-MS/MS analysis
- Format: ADME, organism-based
MEASURED PARAMETER: MRT (min)
The reply should be a number in min, with the unit left off.

The compound identified as CCCC[C@@H]1OC(=O)c2ccccc21 [(3S)-BUTYLPHTHALIDE] registered its MRT at 40.7

----------
- MEASUREMENT PROTOCOL: Volume of distribution at steady state in Sprague-Dawley rat plasma at 4.48 mg/kg, iv and measured upto 24 hrs by LC-MS/MS analysis
- Type: ADME, organism-based
- APPLIED CONDITIONS: read-out: Vdss
MEASURED PARAMETER: Vd (L/kg)
The response must be a number in L/kg with no trailing unit.

The compound identified as CCCC[C@@H]1OC(=O)c2ccccc21 [(3S)-BUTYLPHTHALIDE] registered its Vd at 2.08

----------
- MEASUREMENT PROTOCOL: Clearance in Sprague-Dawley rat plasma at 4.53 mg/kg, iv and measured upto 24 hrs in presence of S-NBP by LC-MS/MS analysis
- Type: ADME, organism-based
MEASURED PARAMETER: clearance (mL/min/kg)
Field: numeric (mL/min/kg). Do not append units.

response.value for CC1=NN(c2ccc(F)cc2)C(=O)C1 (field: clearance) = 27.4

----------
- MEASUREMENT PROTOCOL: C0 in Sprague-Dawley rat plasma at 4.53 mg/kg, iv and measured upto 24 hrs in presence of S-NBP by LC-MS/MS analysis
- Type: ADME, organism-based
MEASURED PARAMETER: C0 at 24 h (ng/mL)
Express your answer in ng/mL, writing the number without its unit.

The measured C0 at 24 h associated with CC1=NN(c2ccc(F)cc2)C(=O)C1 reads 12400

----------
- MEASUREMENT PROTOCOL: Half life in Sprague-Dawley rat plasma at 4.48 mg/kg, iv and measured upto 24 hrs in presence of 4-F-Eda by LC-MS/MS analysis
- Type: ADME, organism-based
MEASURED PARAMETER: half-life (h)
Please state the figure in h; there is no need to write the unit.

Just so you know, measured half-life for CCCC[C@@H]1OC(=O)c2ccccc21 [(3S)-BUTYLPHTHALIDE] came out at 5.05
